Reference source for all entries: patent US12673945B2

Tested on: KOPM28 cells
Assay: human CML cell proliferation inhibition
Type: cell-based
Conditions: 72 hours, Cell Counting Kit-8
reported.endpoint: GI50 (nM)
Provide only the numeric value, understood in nM.

{"chemical.smiles": "Cc1cn(-c2cc(NC(=O)c3cc(C#Cc4cnc5c(Nc6cnn(C)c6)cccn45)c(C)cc3F)cc(C(F)(F)F)c2)cn1", "GI50, nM": 100}

Switching to the query record.
Using the record for Cc1cc(F)c(C(=O)Nc2cc(-c3ccncc3)cc(C(C)(C)C#N)c2)cc1C#Cc1cnc2c(Nc3cn[nH]c3)cccn12 , report its GI50.
100

----------
System: TCCS cells
Assay: human CML cell proliferation inhibition
Type: cell-based
Conditions: 72 hours, Cell Counting Kit-8
# GI50 per entry

Solved cases below.
{"chemical.smiles": "Cc1cc(F)c(C(=O)Nc2cc(-c3cccnc3)cc(C(C)(C)C#N)c2)cc1C#Cc1cnc2c(Nc3cn[nH]c3)cccn12", "GI50": "< 10 nM"}
{"chemical.smiles": "Cc1cc(F)c(C(=O)Nc2ccc(CN3CCCN(C)CC3)c(C(C)(C)C#N)c2)cc1C#Cc1cnc2c(Nc3cnn(C)c3)cccn12", "GI50": "< 10 nM"}
{"chemical.smiles": "Cc1cn(-c2cc(NC(=O)c3cc(C#Cc4cnc5c(Nc6cnn(C)c6)cccn45)c(C)cc3F)cc(C(F)(F)F)c2)cn1", "GI50": "< 10 nM"}
{"chemical.smiles": "Cc1cn(-c2cc(NC(=O)c3cc(F)c(C)c(C#Cc4cnc5c(Nc6cnn(C)c6)cccn45)c3)cc(C(F)(F)F)c2)cn1", "GI50": "100 nM"}

Using the record for Cc1cc(F)c(C(=O)Nc2cc(OCCCN(C)C)cc(C(F)(F)F)c2)cc1C#Cc1cnc2c(Nc3cnn(C)c3)cccn12 , report its GI50.
100 nM

Using the record for Cc1cc(F)c(C(=O)Nc2ccc(Cn3cncn3)c(C(F)(F)F)c2)cc1C#Cc1cnc2c(Nc3cn[nH]c3)cccn12 , report its GI50.
< 10 nM

Using the record for Cc1cc(F)c(C(=O)Nc2cc(N3CCN(C)C(=O)C3)cc(C(C)(C)C#N)c2)cc1C#Cc1cnc2c(Nc3cnn(C)c3)cccn12 , report its GI50.
< 10 nM

----------
Test system: KOPM28 cells
Assay: human CML cell proliferation inhibition
Format: cell-based
Conditions: 72 hours, Cell Counting Kit-8
# GI50 per entry

Solved cases below.
{"chemical.smiles": "Cc1cc(F)c(C(=O)Nc2cc(-c3cccnc3)cc(C(C)(C)C#N)c2)cc1C#Cc1cnc2c(Nc3cnn(C)c3)cccn12", "GI50": "< 10 nM"}
{"chemical.smiles": "Cc1cc(F)c(C(=O)Nc2cc(N3CCC(N4CCN(C)CC4)CC3)cc(C(C)(C)C#N)c2)cc1C#Cc1cnc2c(Nc3cnn(C)c3)cccn12", "GI50": "< 10 nM"}

Switching to the query record.
Query the reported GI50 for KOPM28 cells; item: Cc1cc(F)c(C(=O)Nc2cc(-c3cccnc3)cc(C(C)(C)C#N)c2)cc1C#Cc1cnc2c(Nc3cn[nH]c3)cccn12
< 10 nM
